# SYSTEM NAME: His6-p37AUF1(69-239) (human, UniProt Q14103-4 69-239)
# Sequence (Q14103 other isoform, or with tags, fused parts or gaps): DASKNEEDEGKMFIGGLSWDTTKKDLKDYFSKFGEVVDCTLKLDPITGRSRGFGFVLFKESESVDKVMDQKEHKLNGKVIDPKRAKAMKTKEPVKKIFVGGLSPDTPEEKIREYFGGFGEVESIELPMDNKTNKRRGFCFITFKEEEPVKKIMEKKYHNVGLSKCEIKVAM
# ASSAY: fluorescence anisotropy; Anisotropy: 10 mM Tris-HCl pH 8.0, 100 mM KCl (50 mM for Fl-ARE2), 0.5 mM EDTA, 0.1 ug/ul acetylated BSA, 1 ug/ul heparin, 2 mM DTT, 25 C, RNA 0.2-0.4 nM; EMSA: same with 100 mM KCl, 10% glycerol, 1 nM RNA, on ice, UV crosslinked
# MEASUREMENT CONTEXT: protein: recombinant; label: 3' fluorescein
pKd: −log10 of the molar value.

BINDER: CCCCUGGCUCACAAAUACCUUAUUUAUUUAUUUAG (ssRNA) [ARE1-Fl]
pKd: 6.28
//
BINDER: UUAUUUAUUUAUUUAG (ssRNA) [ARE15-G-Fl]
pKd: 6.03
